Target: Glutamate NMDA receptor; GRIN1/GRIN2A (Homo sapiens, UniProt Q05586+Q12879)
Sequence (Q12879 whole entry, other chains not shown): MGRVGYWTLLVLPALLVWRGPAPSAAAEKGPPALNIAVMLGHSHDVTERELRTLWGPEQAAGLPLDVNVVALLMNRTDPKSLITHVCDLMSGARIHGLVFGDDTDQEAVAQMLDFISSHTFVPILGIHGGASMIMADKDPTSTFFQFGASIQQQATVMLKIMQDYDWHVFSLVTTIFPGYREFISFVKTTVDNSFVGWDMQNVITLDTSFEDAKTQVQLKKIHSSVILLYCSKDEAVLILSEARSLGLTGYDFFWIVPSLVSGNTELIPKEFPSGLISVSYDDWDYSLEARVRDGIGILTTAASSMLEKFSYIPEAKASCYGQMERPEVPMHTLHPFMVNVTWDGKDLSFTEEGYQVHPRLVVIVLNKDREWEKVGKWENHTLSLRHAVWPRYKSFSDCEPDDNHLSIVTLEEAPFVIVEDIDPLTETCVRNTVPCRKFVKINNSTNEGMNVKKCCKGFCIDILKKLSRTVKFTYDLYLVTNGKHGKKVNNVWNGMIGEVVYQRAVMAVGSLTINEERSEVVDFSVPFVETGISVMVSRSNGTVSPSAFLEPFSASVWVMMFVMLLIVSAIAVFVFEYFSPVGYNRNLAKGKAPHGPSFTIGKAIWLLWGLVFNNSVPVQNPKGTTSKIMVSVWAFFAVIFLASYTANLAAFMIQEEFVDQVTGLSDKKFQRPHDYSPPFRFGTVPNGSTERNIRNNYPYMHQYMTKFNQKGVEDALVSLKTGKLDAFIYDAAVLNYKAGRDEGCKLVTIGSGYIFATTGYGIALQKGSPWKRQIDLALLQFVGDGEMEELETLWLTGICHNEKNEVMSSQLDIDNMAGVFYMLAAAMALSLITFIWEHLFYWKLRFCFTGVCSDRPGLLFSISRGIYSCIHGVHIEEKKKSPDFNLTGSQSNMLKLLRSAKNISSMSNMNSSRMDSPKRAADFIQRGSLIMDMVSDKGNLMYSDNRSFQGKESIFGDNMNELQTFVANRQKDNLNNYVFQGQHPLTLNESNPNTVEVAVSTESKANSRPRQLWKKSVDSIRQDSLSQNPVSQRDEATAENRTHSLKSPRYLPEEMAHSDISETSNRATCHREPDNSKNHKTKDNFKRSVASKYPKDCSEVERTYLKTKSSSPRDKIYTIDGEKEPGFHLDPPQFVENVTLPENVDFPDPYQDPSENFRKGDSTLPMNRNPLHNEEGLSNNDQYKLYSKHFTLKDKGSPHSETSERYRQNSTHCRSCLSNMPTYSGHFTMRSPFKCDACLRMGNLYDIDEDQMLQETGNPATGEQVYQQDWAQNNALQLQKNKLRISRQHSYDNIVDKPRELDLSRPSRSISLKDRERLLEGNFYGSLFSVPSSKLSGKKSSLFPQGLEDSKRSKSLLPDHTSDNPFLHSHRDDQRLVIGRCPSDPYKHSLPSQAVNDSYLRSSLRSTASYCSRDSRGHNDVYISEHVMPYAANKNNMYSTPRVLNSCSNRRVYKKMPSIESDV
Experiment: Inhibition of human recombinant NR1/NR2A receptor expressed in U2OS assessed as change in intracellular calcium level by FLIPR assay
Bucketed by reported IC50, buckets being label 0 (below 3 µM), label 1 (3 µM to below 30 µM), label 2 (30 µM or more)

# molecule, classification
records = [
    ("CNC1(c2ccccc2Cl)CCCCC1=O (stereo not given) [KETAMINE]", "label 0"),
    ("O=C1NCCCC1(c1ccccc1)N1CCCCC1 (stereo not given)", "label 1"),
    ("CN1CCCC(c2ccccc2)(N2CCCCC2)C1=O (stereo not given)", "label 1"),
    ("CCCCOc1ccc(C2(N3CCCCC3)CCCCC2)cc1", "label 2"),
    ("CNC1(c2ccccc2Cl)CCCNC1=O (stereo not given)", "label 2"),
    ("c1ccc(C2(N3CCCCC3)CCCCC2)nc1", "label 0"),
    ("CNC1(c2ccccc2Cl)CCCN(C)C1=O (stereo not given)", "label 2"),
    ("CNC1(c2ccc(OC)cc2Cl)CCCCC1=O (stereo not given)", "label 1"),
    ("FC(F)(F)COc1cccc(C2(N3CCCCC3)CCCCC2)c1", "label 1"),
    ("c1ccc(C2(N3CCCCC3)CCCCC2)cc1 [PHENCYCLIDINE]", "label 0"),
    ("CCCCOc1cccc(C2(N3CCCCC3)CCCCC2)c1", "label 0"),
    ("O=C1NCCC1(c1ccccc1)N1CCCCC1 (stereo not given)", "label 1"),
    ("COc1ccc(C2(N3CCCCC3)CCCCC2)cc1", "label 1"),
    ("NC1(c2ccccc2Cl)CCCNC1=O (stereo not given)", "label 2"),
    ("CN1CCC(c2ccccc2)(N2CCCCC2)C1=O (stereo not given)", "label 2"),
]

----------
# key: entry, value: pIC50
Biological target: Glutamate NMDA receptor; GRIN1/GRIN2B (Homo sapiens, UniProt Q05586+Q13224)
Sequence (Q13224 whole entry, other chains not shown): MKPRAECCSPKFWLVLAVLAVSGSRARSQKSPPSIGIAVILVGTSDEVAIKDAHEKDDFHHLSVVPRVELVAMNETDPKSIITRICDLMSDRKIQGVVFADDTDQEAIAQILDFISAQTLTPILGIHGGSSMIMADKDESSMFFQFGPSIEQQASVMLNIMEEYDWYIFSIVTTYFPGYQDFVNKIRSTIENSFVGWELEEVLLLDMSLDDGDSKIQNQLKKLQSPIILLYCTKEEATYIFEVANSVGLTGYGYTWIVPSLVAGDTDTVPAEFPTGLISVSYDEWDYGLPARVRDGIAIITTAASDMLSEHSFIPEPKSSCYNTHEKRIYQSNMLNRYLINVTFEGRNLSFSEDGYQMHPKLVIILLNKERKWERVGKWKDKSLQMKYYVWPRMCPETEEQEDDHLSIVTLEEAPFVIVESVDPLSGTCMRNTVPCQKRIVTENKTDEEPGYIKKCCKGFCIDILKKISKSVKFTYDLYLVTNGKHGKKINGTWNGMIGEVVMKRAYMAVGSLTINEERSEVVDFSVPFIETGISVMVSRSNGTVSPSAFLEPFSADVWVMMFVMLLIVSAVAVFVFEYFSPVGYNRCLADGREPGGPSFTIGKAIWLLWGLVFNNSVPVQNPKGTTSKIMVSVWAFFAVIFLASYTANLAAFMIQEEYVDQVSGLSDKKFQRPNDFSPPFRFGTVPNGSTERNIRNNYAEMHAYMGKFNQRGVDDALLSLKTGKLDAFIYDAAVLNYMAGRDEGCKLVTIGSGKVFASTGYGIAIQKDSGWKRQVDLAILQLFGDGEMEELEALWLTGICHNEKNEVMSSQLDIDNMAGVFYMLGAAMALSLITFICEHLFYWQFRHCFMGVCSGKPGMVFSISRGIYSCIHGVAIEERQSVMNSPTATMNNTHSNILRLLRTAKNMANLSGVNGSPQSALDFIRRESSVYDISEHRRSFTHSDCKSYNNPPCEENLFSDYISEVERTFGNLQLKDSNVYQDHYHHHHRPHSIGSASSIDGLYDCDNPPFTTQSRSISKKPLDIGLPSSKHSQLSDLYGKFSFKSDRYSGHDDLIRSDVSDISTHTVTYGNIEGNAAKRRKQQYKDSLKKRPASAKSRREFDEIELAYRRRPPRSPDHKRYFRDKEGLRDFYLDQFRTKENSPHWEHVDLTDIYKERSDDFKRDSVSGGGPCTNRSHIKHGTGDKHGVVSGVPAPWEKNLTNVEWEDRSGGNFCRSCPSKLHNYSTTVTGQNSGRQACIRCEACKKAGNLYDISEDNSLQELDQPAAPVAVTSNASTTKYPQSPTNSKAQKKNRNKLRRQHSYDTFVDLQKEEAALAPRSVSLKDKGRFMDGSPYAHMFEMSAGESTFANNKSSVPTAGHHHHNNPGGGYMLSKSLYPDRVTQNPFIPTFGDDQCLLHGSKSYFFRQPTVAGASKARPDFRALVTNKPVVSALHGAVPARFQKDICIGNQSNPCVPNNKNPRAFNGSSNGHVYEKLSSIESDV
Assay: Inhibition of human recombinant NR1/NR2B receptor expressed in U2OS assessed as change in intracellular calcium level by FLIPR assay
pIC50: −log10 of the molar value.

# compound, censoring.qualifier, pIC50
measured = [
    ("CNC1(c2ccccc2Cl)CCCCC1=O (stereo not given) [KETAMINE]", "=", 5.30),
    ("FC(F)(F)COc1cccc(C2(N3CCCCC3)CCCCC2)c1", "=", 4.50),
    ("c1ccc(C2(N3CCCCC3)CCCCC2)cc1 [PHENCYCLIDINE]", "=", 5.90),
    ("CNC1(c2ccc(OC)cc2Cl)CCCCC1=O (stereo not given)", "=", 4.70),
    ("CN1CCC(c2ccccc2)(N2CCCCC2)C1=O (stereo not given)", "=", 3.60),
    ("O=C1NCCCC1(c1ccccc1)N1CCCCC1 (stereo not given)", "=", 3.80),
    ("CCCCOc1cccc(C2(N3CCCCC3)CCCCC2)c1", "=", 4.70),
    ("COc1ccc(C2(N3CCCCC3)CCCCC2)cc1", "=", 4.80),
    ("CCCCOc1ccc(C2(N3CCCCC3)CCCCC2)cc1", "<", 4.30),
    ("O=C1NCCC1(c1ccccc1)N1CCCCC1 (stereo not given)", "=", 4.20),
    ("CNC1(c2ccccc2Cl)CCCNC1=O (stereo not given)", "<", 3.60),
    ("NC1(c2ccccc2Cl)CCCNC1=O (stereo not given)", "<", 4.30),
    ("CN1CCCC(c2ccccc2)(N2CCCCC2)C1=O (stereo not given)", "<", 3.60),
    ("c1ccc(C2(N3CCCCC3)CCCCC2)nc1", "=", 5.10),
    ("CNC1(c2ccccc2Cl)CCCN(C)C1=O (stereo not given)", "<", 3.60),
]
